B1: TRIM35 (parent)
chain: DKELLCCSCQADPRHQGHRVQPVK

Variants of: B1
Experiment: protein stability index of a GFP-peptide fusion (GPS, HEK-293T) (PSI 1-6); higher = more stable;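 also: lentivirally expressed fusions sorted by FACS into six bins by GFP to DsRed ratio, PSI derived from sequencing read proportions per bin multiplied by bin number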
Conditions: c terminus: a fixed tail appended
The threshold is inclusive: protein stability index of exactly 4 counts as class 1; values below receive class 0.

Record excerpt, results attached:
residue_string="DKELLCCSCQADPQHQGHRVQPVK [R14Q]" class_label="class 0"
residue_string="DKELLCCSCQADPRHQGHRVQPDK [V23D]" class_label="class 1"
residue_string="DKELLTCSCQADPRHQGHRVQPVK [C6T]" class_label="class 0"
residue_string="DKELLCCSCQADPRHQGHRVQYVK [P22Y]" class_label="class 0"

## Task Tell me whether protein stability index is at least 4 here: DKELLCCSCQADPRHQGHTVQPVK [R19T]
## Result class 0

## Task // inclusive: protein stability index at least 4? input: DKELLCCSCQADQRHQGHRVQPVK [P13Q]
## Result class 0

## Task Quick check: does DKELLCCECQADPRHQGHRVQPVK [S8E] have protein stability index greater than or equal to 4?
## Result class 1

## Task Entry DCELLCCSCQADPRHQGHRVQPVK [K2C] : is its protein stability index no less than 4?
## Result class 1

## Task Does the reported protein stability index for DKELLCCSCQADRRHQGHRVQPVK [P13R] fall at or above the 4 mark?
## Result class 0

## Task Identify whether the reported protein stability index of the following variant is 4 or greater: DKELLCCGCQADPRHQGHRVQPVK [S8G]
## Result class 1

## Task Determine whether this variant has protein stability index no lower than 4: DKELLCCSCQADPRHQEHRVQPVK [G17E]
## Result class 1
